Biological target: Muscarinic acetylcholine receptor (Mus musculus) (UniProt Q920H4+Q9ERZ4+P12657+P32211+Q9ERZ3)
Assay: Analgesic activity after subcutaneous administration in male albino Swiss-Webster mice with the hotplate test
Assay type: functional, organism-based
RECORDED_ENDPOINT: ED50

>  <COMPOUND>
CCN1C2CCC1CC(OC(=O)C(CO)c1ccccc1)C2 (stereo unspecified)

>  <RESULT>
7.3 mg/kg

$$$$

Task: I have this compound here, CC(C(=O)OC1CC2CCC(C1)N2C)c1ccsc1 (stereo unspecified) , and I need its recorded ED50.
Result: 22 mg/kg

---

Biological target: Muscarinic acetylcholine receptor (Mus musculus) (UniProt Q920H4+Q9ERZ4+P12657+P32211+Q9ERZ3)
Test: Analgesic activity after subcutaneous administration in male albino Swiss-Webster mice with the hotplate test
Type: functional, organism-based
RECORDED_ENDPOINT: log10(ED50) (log10 of the value in mg/kg)
Heads up: the numbers are on a log10 scale; they represent ED50 in mg/kg.

>  <MOLECULE>
CN1C2CCC1CC(OC(=O)C(CO)c1ccc(Cl)cc1)C2 (stereo unspecified)

>  <NUMERIC_VALUE>
-0.22

$$$$
>  <MOLECULE>
CN1[C@@H]2CC[C@H]1C[C@H](OC(=O)[C@@H](CO)c1ccccc1)C2

>  <NUMERIC_VALUE>
-0.15

$$$$
>  <MOLECULE>
CC(C(=O)OC1CC2CCC(C1)N2C)c1ccc(Cl)cc1.O=C(O)/C=C\C(=O)O (stereo unspecified)

>  <NUMERIC_VALUE>
1.56

$$$$

Task: I have this molecule here, CC(C(=O)OC1CC2CCC(C1)N2C)c1ccc([N+](=O)[O-])cc1 (stereo unspecified) , and I need its recorded log10(ED50).
Result: 1.26

Task: I have this molecule here, CC(C(=O)OC1CC2CCC(C1)N2C)c1ccc(F)cc1 (stereo unspecified) , and I need its recorded log10(ED50).
Result: 1.49

Task: I have this molecule here, CC(C)Cc1ccc(C(C)C(=O)OC2CC3CCC(C2)N3C)cc1 (stereo unspecified) , and I need its recorded log10(ED50).
Result: 1.43

Task: I have this molecule here, CN1CCC(OC(=O)C(CO)c2ccc(Cl)cc2)CC1 (stereo unspecified) , and I need its recorded log10(ED50).
Result: 0.70

Task: I have this molecule here, CCC(C(=O)OC1CC2CCC(C1)N2C)c1ccc(Br)cc1 (stereo unspecified) , and I need its recorded log10(ED50).
Result: 1.52
